Source listed as ChEMBL document CHEMBL5724914.

assay: The drug is tested on Z-023 corresponding to metagenome with ENA study accession number: PRJEB37062 and ENA sample accession number: ERS12561822 for biotransformation under anaerobic condition. The drug concentrations were measured over 9 timepoints collected between 0 and 24 hours of incubation by liquid-chromatography-coupled mass spectrometry (LC–MS); conditions: 2 µM; further: call rule not given here
value.type: Bacterial Biotransformation

INSERT INTO assay_data (molecule, assay_result) VALUES
  ('CC[C@H](C)C(=O)O[C@H]1C[C@@H](C)C=C2C=C[C@H](C)[C@H](CC[C@@H]3C[C@@H](O)CC(=O)O3)[C@H]21', 'Compound metabolized'),
  ('Cc1ccc(S(=O)(=O)NC(=O)NN2CC3CCCC3C2)cc1 (stereo unspecified) [GLICLAZIDE]', 'Compound metabolized'),
  ('Cc1ccc(/C(=C\CN2CCCC2)c2ccccn2)cc1', 'Compound NOT metabolized'),
  ('CC(C)c1nc(CN(C)C(=O)N[C@H](C(=O)N[C@@H](Cc2ccccc2)C[C@H](O)[C@H](Cc2ccccc2)NC(=O)OCc2cncs2)C(C)C)cs1', 'Compound metabolized'),
  ('Cc1ccc(-c2nc3ccc(C)cn3c2CC(=O)N(C)C)cc1', 'Compound metabolized'),
  ('CO[C@]12C[C@@H](COC(=O)c3cncc(Br)c3)CN(C)[C@@H]1Cc1cn(C)c3cccc2c13', 'Compound metabolized'),
  ('COC(=O)[C@H]1[C@H]2C[C@@H]3c4[nH]c5cc(OC)ccc5c4CCN3C[C@H]2C[C@@H](OC(=O)c2cc(OC)c(OC)c(OC)c2)[C@@H]1OC', 'Compound metabolized'),
  ('CN(C)CCc1c[nH]c2ccc(Cn3cncn3)cc12.O=C(O)c1ccccc1 [RIZATRIPTAN BENZOATE]', 'Compound NOT metabolized'),
  ('Cc1ccc(S(=O)(=O)NC(=O)NN2CCCCCC2)cc1 [TOLAZAMIDE]', 'Compound metabolized'),
  ('COc1ccccc1OCC(O)CN1CCN(CC(=O)Nc2c(C)cccc2C)CC1 (stereo unspecified)', 'Compound metabolized'),
  ('C[C@@H]1C[C@H]2[C@@H]3CCC4=CC(=O)C=C[C@]4(C)[C@@]3(F)[C@@H](O)C[C@]2(C)[C@@]1(O)C(=O)CO', 'Compound metabolized'),
  ('COc1ccccc1OCC(O)COC(N)=O (stereo unspecified)', 'Compound NOT metabolized'),
  ('CCCCc1nc(Cl)c(CO)n1Cc1ccc(-c2ccccc2-c2nn[nH]n2)cc1', 'Compound metabolized'),
  ('CS(=O)(=O)O.OC(CCN1CCCCC1)(c1ccccc1)c1ccccc1 [PRIDINOL METHANESULFONATE]', 'Compound NOT metabolized'),
  ('CC(=O)OCC(=O)[C@@]1(O)[C@@H](C)C[C@H]2[C@@H]3CCC4=CC(=O)C=C[C@]4(C)[C@@]3(F)[C@@H](O)C[C@@]21C [BETAMETHASONE ACETATE]', 'Compound metabolized'),
  ('COc1cc2nc(N(C)CCCNC(=O)C3CCCO3)nc(N)c2cc1OC (stereo unspecified)', 'Compound NOT metabolized');
